Data origin: patent US20240343710A1

- Study Target: recombinant human PARP1 (Homo sapiens)
- Sequence (P09874 whole entry): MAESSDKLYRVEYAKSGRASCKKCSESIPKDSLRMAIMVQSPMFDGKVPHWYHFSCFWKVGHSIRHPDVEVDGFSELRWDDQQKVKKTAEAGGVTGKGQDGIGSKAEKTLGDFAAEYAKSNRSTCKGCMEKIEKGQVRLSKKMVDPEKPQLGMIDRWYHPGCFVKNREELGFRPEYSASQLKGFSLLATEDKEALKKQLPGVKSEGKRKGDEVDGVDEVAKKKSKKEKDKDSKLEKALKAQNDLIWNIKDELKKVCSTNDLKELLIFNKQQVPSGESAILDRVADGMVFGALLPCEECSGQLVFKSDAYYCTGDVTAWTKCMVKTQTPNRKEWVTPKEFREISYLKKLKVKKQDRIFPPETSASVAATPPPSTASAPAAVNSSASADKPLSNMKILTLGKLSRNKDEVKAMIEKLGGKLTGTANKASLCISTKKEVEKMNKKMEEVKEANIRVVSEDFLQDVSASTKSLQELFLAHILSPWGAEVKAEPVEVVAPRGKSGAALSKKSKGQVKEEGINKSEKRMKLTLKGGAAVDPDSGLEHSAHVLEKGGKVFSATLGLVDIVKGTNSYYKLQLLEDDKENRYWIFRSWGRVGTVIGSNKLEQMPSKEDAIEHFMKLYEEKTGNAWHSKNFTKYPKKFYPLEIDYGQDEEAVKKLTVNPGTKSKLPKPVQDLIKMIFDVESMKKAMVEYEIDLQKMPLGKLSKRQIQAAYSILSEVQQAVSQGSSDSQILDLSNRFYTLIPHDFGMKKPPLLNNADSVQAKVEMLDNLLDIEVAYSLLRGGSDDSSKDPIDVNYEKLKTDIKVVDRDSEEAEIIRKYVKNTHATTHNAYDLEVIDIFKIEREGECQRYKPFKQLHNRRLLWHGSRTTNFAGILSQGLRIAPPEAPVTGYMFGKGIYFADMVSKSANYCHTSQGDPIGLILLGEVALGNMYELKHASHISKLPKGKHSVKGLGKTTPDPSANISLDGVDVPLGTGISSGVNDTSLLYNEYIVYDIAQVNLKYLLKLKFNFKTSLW
- Protocol Notes: PARP1 fluorescence polarization binding assay
- Condition: GST-tagged PARP1 20 nM, PARP1-FL probe 3 nM
pIC50: −log10 of the molar value. Counter-ions that a name gives are not always drawn.
For each of the compounds below, state its pIC50.

Some compounds with recorded pIC50:
CCNC(=O)Nc1cc(CN2CCN(c3ccc(C#N)cn3)CC2)ncn1 [Compound 275] | > 7.00
CCNC(=O)Nc1ncc(CN2CCN(c3ccc(C(=O)NC)nc3C)CC2)n1C [Compound 277] | > 7.00
CNC(=O)C(=O)Nc1cc(CN2CCN(c3ccc(C(=O)NC)nc3C)CC2)ns1 [Compound 280] | ≤ 5.52
CCNC(=O)Nc1cc(CN2CCN(c3ccc(C(=O)NC)nc3C)CC2)c(C)cn1 [Compound 70, formate] | > 7.00
[2H]C([2H])([2H])c1nc(C(=O)NC)ccc1N1CCN(Cc2ccnc(NC(=O)NCC)c2)CC1 [Compound 274] | > 7.00

Value sought for every listed compound: pIC50.
1. CCNC(=O)Nc1nccc(CN2CCN(c3ccc(C(=O)NC)nc3F)CC2)c1F [Compound 81]
2. CCNC(=O)Nc1nccc(CN2CCN(c3ccc(C#N)cn3)CC2)c1F [Compound 268]

1. > 7.00
2. > 7.00

Quick one: give me pIC50 for each item below, same order please.
1. CCNC(=O)Nc1cc(CN2CCN(c3ccc(C(=O)NC)nc3C)CC2)ncn1 [Compound 230, formate]
2. CCNC(=O)Nc1cc(CN2CCN(c3ccc(-n4cccn4)nc3C)CC2)ccn1 [Compound 24]
3. CCNC(=O)Nc1cc(CN2CCN(c3cnc4c(NC)nccc4c3)CC2)ccn1 [Compound 257]

["> 7.00", "> 7.00", "> 7.00"]

I have 5 compounds here; please give me pIC50 for each one.
1. CCNC(=O)Nc1cc(CN2CCN(c3ccc(C(=O)CC)nc3C)CC2)ccn1 [Compound 7]
2. CCNC(=O)Nc1cc(CN2CCN(c3ccc(C(=O)NC)nc3F)CC2)ncn1 [Compound 229, formate]
3. CCNC(=O)Nc1cc(CN2CCN(c3ccc(-c4ncc[nH]4)nc3C)CC2)ccn1 [Compound 272, formate]
4. CCNC(=O)Nc1cc(CN2CCN(c3ccc(C#N)cc3F)CC2)ccn1 [Compound 276, trifluoroacetate]
5. CCNC(=O)Nc1cc(CN2CCN(c3ccc(C(F)(F)F)cn3)CC2)ccn1 [Compound 273]

1. > 7.00
2. > 7.00
3. > 7.00
4. > 7.00
5. > 7.00
